Value source: ChEMBL document CHEMBL4834405

# assay-info: Selectivity ratio of Kd for displacement of fluorescent tracer 5-(3-(4-((1S,5S,6S)-10-(3,5-dichlorophenylsulfonyl)-2-oxo-3-(pyridin-3-ylmethyl)-3,10-diazabicyclo[4.3.1]decan-5-yl)-1H-1,2,3-triazol-1-yl)propylcarbamoyl)-2-(6-(dimethylamino)-3-(dimethyliminio)-3H-xanthen-9-yl)benzoate from recombinant full length C-terminal FLAG-tagged FJBP12 to Kd for displacement of fluorescent tracer 5-(3-(4-((1S,5S,6S)-10-(3,5-dichlorophenylsulfonyl)-2-oxo-3-(pyridin-3-ylmethyl)-3,10-diazabicyclo[4.3.1]decan-5-yl)-1H-1,2,3-triazol-1-yl)propylcarbamoyl)-2-(6-(dimethylamino)-3-(dimethyliminio)-3H-xanthen-9-yl)benzoate from recombinant full length C-terminal FLAG-tagged FKBP51 (unknown origin)
observed-property: Selectivity ratio

{"cpd-smiles": "COc1ccc(CC[C@H]2OC(=O)[C@@H]3CCCCN3C(=O)[C@@H](C3CCCCC3)c3cc(OC)c(c(OC)c3)OCCOCCCCOc3cccc2c3)cc1OC", "Selectivity ratio": 8}

(a) COc1ccc(CC[C@H]2OC(=O)[C@@H]3CCCCN3C(=O)[C@@H](C3CCCCC3)c3cc(OC)c(c(OC)c3)OC/C=C/COc3cccc2c3)cc1OC
(b) COc1ccc(CC[C@H]2OC(=O)[C@@H]3CCCCN3C(=O)[C@@H](C3CCCCC3)c3cc(OC)c(OC)c(c3)OCCC(=O)CCOc3cccc2c3)cc1OC
[Q] # query: argmin of Selectivity ratio over a and b Could you answer with the label of the item you picked?
[A] b
